measurementTarget: T1, human CD71 extracellular domain (human, UniProt P02786 89-760, biotinylated)
T1 construct: also called hCD71; CD71-ECD
T1 sequence (P02786 89-760): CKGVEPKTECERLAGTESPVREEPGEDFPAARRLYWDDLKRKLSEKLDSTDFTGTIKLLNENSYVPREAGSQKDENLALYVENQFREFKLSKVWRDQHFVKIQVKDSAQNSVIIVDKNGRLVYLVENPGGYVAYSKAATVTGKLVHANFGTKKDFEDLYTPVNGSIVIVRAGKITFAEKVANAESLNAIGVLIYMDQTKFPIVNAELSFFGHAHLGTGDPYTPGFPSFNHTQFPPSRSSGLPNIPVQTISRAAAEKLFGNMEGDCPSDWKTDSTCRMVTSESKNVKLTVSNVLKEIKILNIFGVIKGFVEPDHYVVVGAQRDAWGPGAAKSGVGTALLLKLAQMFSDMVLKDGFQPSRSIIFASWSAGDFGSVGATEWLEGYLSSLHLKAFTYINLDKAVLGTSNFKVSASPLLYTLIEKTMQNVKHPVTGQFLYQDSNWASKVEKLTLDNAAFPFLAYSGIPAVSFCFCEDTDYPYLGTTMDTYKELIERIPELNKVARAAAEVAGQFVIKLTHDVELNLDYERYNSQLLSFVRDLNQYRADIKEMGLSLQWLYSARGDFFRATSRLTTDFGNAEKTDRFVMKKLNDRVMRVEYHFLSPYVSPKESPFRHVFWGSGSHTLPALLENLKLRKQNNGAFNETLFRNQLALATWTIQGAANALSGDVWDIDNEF
assayNotes: primary ELISA, RLU over HSA
Entries and their hCD71:HSA
Field format: numeric only.

Worked set:
• CD71-binding FN3 domain of SEQ ID NO: 491 (designed binder) MLPAPKNLVVSRVTEDSARLSWTAPDAAFDSFFIGYLEPQPSGEAIHLIVPGSERSYDLTGLKPGTEYNVTIQGVKGGFPSDPLVASFTT = 265
• CD71-binding FN3 domain of SEQ ID NO: 526 (designed binder) MLPAPKNLVVSRVTEDSARLSWTAPDAAFDSFFIGYLEPQPPGEAISLIVPGSERSYDLTGLKPGTEYNVTIQGVKGGFPSDPLIAIFTT = 497
• CD71-binding FN3 domain of SEQ ID NO: 529 (designed binder) MLPAPKNLVVSRVTEDSARLSWTAPDAAFDSFFIGYLEPQPPGEAIDLYVPGSERSYDLTGLKPGTEYNVTIQGVKGGFPSLPLQAHFTT = 466
• CD71-binding FN3 domain of SEQ ID NO: 459 (designed binder) MLPAPKNLVVSRVTEDSARLSWTAPDAAFDSFFIRYLEPQPPGEAIHLSVPGSERSYDLTGLKPGTEYNVTIQGVKGGFPSMPLYAIFTT = 191
• CD71-binding FN3 domain of SEQ ID NO: 467 (designed binder) MLPAPKNLVVSRVTEDSARLSWTAPDAAFDSFFIGYLEPQPPGEAIQLLVPGSERSYDLTGLKPGTEYNVTIQGVKGGFPSDPLVAYSTT = 27
• CD71-binding FN3 domain of SEQ ID NO: 538 (designed binder) MLPAPKNLVVSRVTEDSARLSWTAPDAAFDSFFIGYLEPQPPGEAIDLYVPGSERSYDLTGLKPGTEYNVTIQGVKGGFPSHPLVAVFTT = 185
• CD71-binding FN3 domain of SEQ ID NO: 505 (designed binder) MLPAPKNLVVSRVTEDSARLSWTALDAAFDSFFIGYLEPQPPGEAIHLFVPGSERSYDLTGLKPGTEYNVTIQGVKGGFPSEPLIANFTT = 52
• CD71-binding FN3 domain of SEQ ID NO: 508 (designed binder) MLPAPKNLVVSRVTEDSARLSWTAPDAAFDSFFIGYLEPQPPGEAITLSVPGSERSYDLTGLKPGTEYNVTIQGVKGGFPSEPLIAIFTT = 264

Input CD71-binding FN3 domain of SEQ ID NO: 475 (designed binder) MLPAPKNLVVSRVTEDSARLSWTAPDAAFDSFFIGYLEPQPPGEAITLYVPGSERSYDLTGLKPGTEYNVTIQGVKGGFPSIPLSAEFTT , output reported hCD71:HSA.
101

# credit: patent US20260151494A1
